- target or test system: pEGFR, PC-9 cells (d746-750 EGFR) (Homo sapiens, UniProt P00533, DEL746-750)
- Construct: pEGFR (Tyr1068) TR-FRET
- Sequence (P00533 with tags, fused parts or gaps DEL746-750): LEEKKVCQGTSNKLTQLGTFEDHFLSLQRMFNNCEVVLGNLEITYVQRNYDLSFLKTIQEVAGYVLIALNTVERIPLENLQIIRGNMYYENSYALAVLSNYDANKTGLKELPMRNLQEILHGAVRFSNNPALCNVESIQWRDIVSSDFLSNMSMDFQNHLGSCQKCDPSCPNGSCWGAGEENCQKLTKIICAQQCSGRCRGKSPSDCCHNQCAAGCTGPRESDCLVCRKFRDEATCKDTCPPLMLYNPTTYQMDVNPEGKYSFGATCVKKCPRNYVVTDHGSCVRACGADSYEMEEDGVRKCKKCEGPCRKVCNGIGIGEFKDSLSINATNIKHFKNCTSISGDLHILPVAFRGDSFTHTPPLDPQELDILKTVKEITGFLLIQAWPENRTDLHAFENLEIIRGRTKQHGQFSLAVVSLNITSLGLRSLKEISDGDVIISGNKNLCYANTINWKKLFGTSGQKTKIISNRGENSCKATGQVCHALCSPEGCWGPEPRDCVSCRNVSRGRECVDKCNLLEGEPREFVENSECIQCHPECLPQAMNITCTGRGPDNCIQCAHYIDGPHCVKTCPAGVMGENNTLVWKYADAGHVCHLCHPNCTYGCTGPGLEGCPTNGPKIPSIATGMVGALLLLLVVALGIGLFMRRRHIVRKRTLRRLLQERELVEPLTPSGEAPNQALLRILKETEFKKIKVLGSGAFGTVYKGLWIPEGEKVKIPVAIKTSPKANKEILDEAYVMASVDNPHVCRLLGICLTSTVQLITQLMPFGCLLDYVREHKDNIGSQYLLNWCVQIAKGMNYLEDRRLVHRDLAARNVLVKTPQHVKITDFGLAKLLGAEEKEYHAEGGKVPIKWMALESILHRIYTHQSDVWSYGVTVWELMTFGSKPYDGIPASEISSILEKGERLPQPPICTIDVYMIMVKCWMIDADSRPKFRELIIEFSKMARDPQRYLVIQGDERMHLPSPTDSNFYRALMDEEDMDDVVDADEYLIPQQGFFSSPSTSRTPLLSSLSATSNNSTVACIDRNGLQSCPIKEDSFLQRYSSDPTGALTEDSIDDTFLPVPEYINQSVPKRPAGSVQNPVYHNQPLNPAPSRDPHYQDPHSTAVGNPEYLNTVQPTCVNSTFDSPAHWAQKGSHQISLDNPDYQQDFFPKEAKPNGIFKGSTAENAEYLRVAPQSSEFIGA
- test description: Cellular EGFR phosphorylation assay (LANCE Ultra TR-FRET) in PC-9 cells
- Assay type: cell-based
- particulars: 4 hours at 37° C., read-out: PC-9 pEGFR IC50
Provide the reported pIC50 of each item.
Please report pIC50 as the negative decimal logarithm of the molar concentration, giving only the number.

Prompt: pIC50 for CCN1Cc2c(c(OCC#N)nn2[C@@H](C)CO)/C=C/c2n[nH]c3c(C)nc(cc23)-c2c(C)nn(C)c2O[C@@H](C)C1 ?
Completion: 8.71

Prompt: Now try CCOc1nn(C[C@H](C)O)c2c1/C=C/c1n[nH]c3cnc(cc13)-c1c(C)nn(C)c1O[C@@H](C)CN(C1CC1)C2 .
Completion: 8.36

Prompt: Now try CCOc1nn([C@@H](C)CO)c2c1/C=C/c1n[nH]c3c(C)nc(cc13)-c1c(C)nn(C)c1O[C@H](C)CN(C)C2 .
Completion: 8.44

Prompt: Now try Cc1nc2cc3c(n[nH]c13)/C=C/c1c(OC(C)C)nn(CCO)c1CN(C)C[C@H](C)Oc1c-2cnn1C .
Completion: 7.94

* * *

- target or test system: EGFR (L858R) (Homo sapiens, UniProt P00533, L858R)
- Sequence (P00533 25-1210 L858R): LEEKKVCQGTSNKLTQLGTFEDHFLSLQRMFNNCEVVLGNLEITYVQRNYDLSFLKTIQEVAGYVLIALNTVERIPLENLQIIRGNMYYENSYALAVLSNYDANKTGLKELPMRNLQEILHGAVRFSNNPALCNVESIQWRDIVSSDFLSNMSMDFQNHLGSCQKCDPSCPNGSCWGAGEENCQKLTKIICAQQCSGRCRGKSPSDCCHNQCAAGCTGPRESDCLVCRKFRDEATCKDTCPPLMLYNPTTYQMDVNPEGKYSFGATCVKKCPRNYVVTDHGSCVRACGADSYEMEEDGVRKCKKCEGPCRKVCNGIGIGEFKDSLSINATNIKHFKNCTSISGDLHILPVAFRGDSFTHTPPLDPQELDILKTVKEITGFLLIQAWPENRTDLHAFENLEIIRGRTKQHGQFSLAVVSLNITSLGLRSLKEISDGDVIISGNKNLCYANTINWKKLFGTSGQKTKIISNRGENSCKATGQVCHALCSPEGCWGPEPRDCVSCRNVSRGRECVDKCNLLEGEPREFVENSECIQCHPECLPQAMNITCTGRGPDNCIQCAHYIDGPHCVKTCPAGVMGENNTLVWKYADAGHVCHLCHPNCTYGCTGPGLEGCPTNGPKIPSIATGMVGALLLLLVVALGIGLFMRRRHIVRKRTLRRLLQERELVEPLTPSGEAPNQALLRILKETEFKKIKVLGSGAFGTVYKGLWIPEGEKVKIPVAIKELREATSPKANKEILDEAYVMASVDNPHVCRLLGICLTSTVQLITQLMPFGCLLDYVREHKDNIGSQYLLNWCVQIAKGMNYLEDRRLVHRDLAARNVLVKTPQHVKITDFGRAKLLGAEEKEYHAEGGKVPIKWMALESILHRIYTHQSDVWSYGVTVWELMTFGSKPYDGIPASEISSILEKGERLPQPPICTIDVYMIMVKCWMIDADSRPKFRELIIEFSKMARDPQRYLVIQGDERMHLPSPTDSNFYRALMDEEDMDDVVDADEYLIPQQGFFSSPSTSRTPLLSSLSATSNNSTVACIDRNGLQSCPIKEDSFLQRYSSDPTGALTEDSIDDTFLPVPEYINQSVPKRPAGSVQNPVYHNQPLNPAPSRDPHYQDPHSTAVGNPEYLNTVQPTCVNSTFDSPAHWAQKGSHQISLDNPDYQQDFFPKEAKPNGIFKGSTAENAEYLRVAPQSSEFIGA
- test description: HotSpot radiometric kinase assay, inhibition of EGFR L858R mutant
- particulars: 33P ATP, room temperature, 120 m
Under this convention, Condition met denotes IC50 strictly below 1 nM and Condition not met denotes IC50 at or above 1 nM.

Prompt: In the record for CCOc1nn(CCO)c2c1/C=C/c1n[nH]c3cnc(cc13)-c1c(C)nn(C)c1O[C@@H](C)CN(CC)C2 , is IC50 less than 1 nM?
Completion: Condition met

Prompt: Now try CCN1Cc2c(c(C)nn2CCO)/C=C/c2n[nH]c3cnc(cc23)-c2c(C)nn(C)c2O[C@@H](C)C1 .
Completion: Condition met

Prompt: Now try CCOc1nn([C@@H](C)CO)c2c1/C=C/c1n[nH]c3cnc(cc13)-c1c(C)nn(C)c1OC[C@H](C)N(CC)C2 .
Completion: Condition not met

Prompt: Now try CC(C)Oc1nn(CCO)c2c1/C=C/c1n[nH]c3cnc(cc13)-c1cnn(C)c1O[C@H](C)CN(C(C)C)C2 .
Completion: Condition not met

Prompt: Now try CCOc1nn(CCO)c2c1/C=C/c1n[nH]c3cnc(cc13)-c1c(C)nn(C)c1OC[C@@H](C)N(CC)C2 .
Completion: Condition met

* * *

- target or test system: pEGFR, PC-9 cells (d746-750 EGFR) (Homo sapiens, UniProt P00533, DEL746-750)
- Construct: pEGFR (Tyr1068) TR-FRET
- test description: Cellular EGFR phosphorylation assay (LANCE Ultra TR-FRET) in PC-9 cells
- Format: cell-based
- particulars: 4 hours at 37° C., read-out: PC-9 pEGFR IC50
Provide the reported IC50 of each item.
Quote the value and follow it with the unit of measurement.

Prompt: IC50 for Cc1nn(C)c2c1-c1cc3c(n[nH]c3cn1)/C=C/c1c(OCC#N)nn(CCO)c1CN(C)[C@@H](C)CO2 ?
Completion: 65.1 nM

Prompt: Now try Cc1c2c(nn1C)CN(C)CCOc1c(cnn1C)-c1cc3c(n[nH]c3cn1)/C=C/2 .
Completion: 72.6 nM

Prompt: Now try CCOc1nn(CCO)c2c1/C=C/c1n[nH]c3cnc(cc13)-c1c(C)nn(C)c1OC[C@H](C)N(C(C)C)C2 .
Completion: 1.35 nM

Prompt: Now try CC(C)Oc1nn(CCO)c2c1/C=C/c1n[nH]c3cnc(cc13)-c1cnn(C)c1O[C@@H](C)CN(C)C2 .
Completion: 6.4 nM

Prompt: Now try CCOc1nn([C@@H](C)CO)c2c1/C=C/c1n[nH]c3cnc(cc13)-c1c(C)nn(C)c1OC[C@@H](C)N(C)C2 .
Completion: 1.08 nM

* * *

- target or test system: EGFR (L858R/T790M) (Homo sapiens, UniProt P00533, L858R/T790M)
- Sequence (P00533 25-1210 T790M/L858R): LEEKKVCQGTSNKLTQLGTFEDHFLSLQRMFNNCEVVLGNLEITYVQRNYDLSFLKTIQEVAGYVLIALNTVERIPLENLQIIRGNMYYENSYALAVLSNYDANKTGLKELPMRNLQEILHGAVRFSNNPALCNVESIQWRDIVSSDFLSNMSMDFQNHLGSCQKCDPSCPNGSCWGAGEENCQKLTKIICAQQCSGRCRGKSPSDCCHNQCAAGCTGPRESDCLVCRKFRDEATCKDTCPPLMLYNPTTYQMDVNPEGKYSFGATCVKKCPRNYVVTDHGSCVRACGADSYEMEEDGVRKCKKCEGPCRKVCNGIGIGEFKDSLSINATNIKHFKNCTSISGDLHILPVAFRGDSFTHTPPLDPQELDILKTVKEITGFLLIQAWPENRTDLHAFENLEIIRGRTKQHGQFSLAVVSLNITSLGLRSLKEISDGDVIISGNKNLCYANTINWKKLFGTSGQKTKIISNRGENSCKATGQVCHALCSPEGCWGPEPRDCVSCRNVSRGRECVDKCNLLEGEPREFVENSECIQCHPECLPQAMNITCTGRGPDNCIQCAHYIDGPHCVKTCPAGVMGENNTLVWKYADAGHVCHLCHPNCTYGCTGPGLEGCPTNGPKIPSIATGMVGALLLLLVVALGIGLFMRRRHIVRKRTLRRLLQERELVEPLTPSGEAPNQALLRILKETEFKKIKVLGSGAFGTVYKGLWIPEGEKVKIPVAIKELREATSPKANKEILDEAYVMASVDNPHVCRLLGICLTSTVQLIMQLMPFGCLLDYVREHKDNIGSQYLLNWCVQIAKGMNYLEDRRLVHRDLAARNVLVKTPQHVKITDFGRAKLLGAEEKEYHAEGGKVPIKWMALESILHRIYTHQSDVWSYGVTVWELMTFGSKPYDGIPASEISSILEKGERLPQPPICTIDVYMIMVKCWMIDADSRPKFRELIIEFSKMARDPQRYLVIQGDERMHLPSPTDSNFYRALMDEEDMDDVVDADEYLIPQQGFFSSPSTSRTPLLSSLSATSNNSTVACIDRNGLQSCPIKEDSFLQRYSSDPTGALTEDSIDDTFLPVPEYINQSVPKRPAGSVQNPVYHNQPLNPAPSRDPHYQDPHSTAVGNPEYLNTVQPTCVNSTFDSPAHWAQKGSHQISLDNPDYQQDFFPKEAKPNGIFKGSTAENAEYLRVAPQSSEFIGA
- test description: HotSpot radiometric kinase assay, inhibition of EGFR L858R/T790M mutant
- particulars: 33P ATP, room temperature, 120 m
attribute measured: pIC50
Please report pIC50 as the negative decimal logarithm of the molar concentration, giving only the number.

Prompt: pIC50 for CCOc1nn(CCO)c2c1/C=C/c1n[nH]c3cnc(cc13)-c1c(C)nn(C)c1O[C@@H](C)CN(C(C)C)C2 ?
Completion: 9.15

Prompt: Now try CCOc1nn(CCO)c2c1/C=C/c1n[nH]c3c(C)nc(cc13)-c1c(C)nn(C)c1O[C@@H](C)CN(C)C2 .
Completion: 9.49

Prompt: Now try CCOc1nn(CCO)c2c1/C=C/c1n[nH]c3cnc(cc13)-c1c(C)nn(C)c1OC[C@H](C)N(CC)C2 .
Completion: 8.86

Prompt: Now try CCN1Cc2c(c(C)nn2CCO)/C=C/c2n[nH]c3cnc(cc23)-c2c(C)nn(C)c2O[C@H](C)C1 .
Completion: 9.64

* * *

Provide the reported pIC50 of each item.
- target or test system: EGFR (L858R/T790M/C797S) (Homo sapiens, UniProt P00533, C797S/L858R/T790M)
- Sequence (P00533 25-1210 T790M/C797S/L858R): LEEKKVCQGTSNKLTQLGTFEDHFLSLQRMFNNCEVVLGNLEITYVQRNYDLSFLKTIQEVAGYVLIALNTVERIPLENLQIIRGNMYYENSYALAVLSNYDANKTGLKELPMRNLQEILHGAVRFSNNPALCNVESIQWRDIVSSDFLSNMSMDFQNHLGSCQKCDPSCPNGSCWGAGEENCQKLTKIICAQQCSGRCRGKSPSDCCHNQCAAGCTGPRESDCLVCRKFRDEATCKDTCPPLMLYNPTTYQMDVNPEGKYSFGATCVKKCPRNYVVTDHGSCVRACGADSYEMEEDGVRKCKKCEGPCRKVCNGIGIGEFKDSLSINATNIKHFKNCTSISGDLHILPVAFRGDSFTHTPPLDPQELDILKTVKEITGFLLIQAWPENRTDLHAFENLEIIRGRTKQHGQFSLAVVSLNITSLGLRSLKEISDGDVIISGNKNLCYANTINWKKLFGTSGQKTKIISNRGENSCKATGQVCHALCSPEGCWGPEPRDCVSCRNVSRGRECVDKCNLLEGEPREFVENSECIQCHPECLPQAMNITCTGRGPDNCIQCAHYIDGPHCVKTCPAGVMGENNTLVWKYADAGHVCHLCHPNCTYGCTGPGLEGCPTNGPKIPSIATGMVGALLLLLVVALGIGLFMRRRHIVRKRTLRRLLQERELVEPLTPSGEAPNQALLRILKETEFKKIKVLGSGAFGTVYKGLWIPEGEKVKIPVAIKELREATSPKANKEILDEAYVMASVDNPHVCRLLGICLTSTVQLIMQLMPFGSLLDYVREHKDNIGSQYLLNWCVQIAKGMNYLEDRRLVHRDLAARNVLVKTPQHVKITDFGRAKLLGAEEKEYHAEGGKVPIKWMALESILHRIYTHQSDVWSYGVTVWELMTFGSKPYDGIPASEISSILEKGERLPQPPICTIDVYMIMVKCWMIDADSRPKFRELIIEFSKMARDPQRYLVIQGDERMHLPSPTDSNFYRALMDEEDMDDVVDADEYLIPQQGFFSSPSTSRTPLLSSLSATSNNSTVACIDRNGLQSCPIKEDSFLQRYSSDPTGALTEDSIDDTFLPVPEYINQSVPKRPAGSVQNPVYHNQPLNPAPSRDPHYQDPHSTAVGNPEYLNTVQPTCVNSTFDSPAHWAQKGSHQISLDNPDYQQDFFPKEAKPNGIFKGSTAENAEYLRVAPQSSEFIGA
- test description: HotSpot radiometric kinase assay, inhibition of EGFR L858R/T790M/C797S mutant
- particulars: 33P ATP, room temperature, 120 m
Please report pIC50 as the negative decimal logarithm of the molar concentration, giving only the number.

Prompt: pIC50 for CCN1Cc2c(c(OC(C)C)nn2CCO)/C=C/c2n[nH]c3cnc(cc23)-c2cnn(C)c2O[C@@H](C)C1 ?
Completion: 9.31

Prompt: Now try CCOc1nn(CCO)c2c1/C=C/c1n[nH]c3cnc(cc13)-c1c(C)nn(C)c1O[C@@H](C)CN(CC)C2 .
Completion: 9.43

Prompt: Now try CCOc1nn(CCO)c2c1/C=C/c1n[nH]c3cnc(cc13)-c1c(C)nn(C)c1OC[C@H](C)N(CC)C2 .
Completion: 8.34

Prompt: Now try Cc1nn(C)c2c1-c1cc3c(n[nH]c3cn1)/C=C/c1c(OCC#N)nn([C@@H](C)CO)c1CN(C)CCO2 .
Completion: 9.51

Prompt: Now try CCOc1nn(CCO)c2c1/C=C/c1n[nH]c3cnc(cc13)-c1cnn(C)c1O[C@H](C)CN(CC)C2 .
Completion: 9.92

Prompt: Now try CCOc1nn(CCO)c2c1/C=C/c1n[nH]c3c(C)nc(cc13)-c1c(C)nn(C)c1O[C@@H](C)CN(C)C2 .
Completion: 9.55

Prompt: Now try CCOc1nn([C@@H](C)CO)c2c1/C=C/c1n[nH]c3cnc(cc13)-c1c(C)nn(C)c1O[C@@H](C)CN(C)C2 .
Completion: 9.35

Prompt: Now try CCOc1nn([C@@H](C)CO)c2c1/C=C/c1n[nH]c3cnc(cc13)-c1c(C)nn(C)c1O[C@@H](C)CN(CC)C2 .
Completion: 9.03

Prompt: Now try CCOc1nn([C@@H](C)CO)c2c1/C=C/c1n[nH]c3cnc(cc13)-c1c(C)nn(C)c1OC[C@H](C)N(CC)C2 .
Completion: 9.29

Prompt: Now try CCOc1nn(CCO)c2c1/C=C/c1n[nH]c3cnc(cc13)-c1c(C)nn(C)c1O[C@@H](C)[C@H]1CCCN1C2 .
Completion: 9.11

Prompt: Now try Cc1nn(C)c2c1-c1cc3c(n[nH]c3cn1)/C=C/c1c(OCC#N)nn(CCO)c1CN(C)[C@@H](C)CO2 .
Completion: 9.54

Prompt: Now try CCOc1nn([C@@H](C)CO)c2c1/C=C/c1n[nH]c3c(C)nc(cc13)-c1c(C)nn(C)c1O[C@@H](C)CN(C)C2 .
Completion: 9.19

Prompt: Now try Cc1nn(C)c2c1-c1cc3c(n[nH]c3cn1)/C=C/c1c(OCC#N)nn(CCO)c1CN(C)C[C@H](C)O2 .
Completion: 9.28

Prompt: Now try CC(C)Oc1nn(CCO)c2c1/C=C/c1n[nH]c3cnc(cc13)-c1cnn(C)c1O[C@@H](C)CN(C)C2 .
Completion: 10.00

Prompt: Now try Cc1nn(CCO)c2c1/C=C/c1n[nH]c3c(C)nc(cc13)-c1cnn(C)c1O[C@@H](C)CN(C)C2 .
Completion: 9.43

Prompt: Now try CCN1CCOc2c(c(C)nn2C)-c2cc3c(n[nH]c3cn2)/C=C/c2c(OCC#N)nn([C@@H](C)CO)c2C1 .
Completion: 9.27

Prompt: Now try Cc1nn([C@@H](C)CO)c2c1/C=C/c1n[nH]c3c(C)nc(cc13)-c1c(C)nn(C)c1O[C@@H](C)CN(C)C2 .
Completion: 9.07

Prompt: Now try CCOc1nn(CCO)c2c1/C=C/c1n[nH]c3c(C)nc(cc13)-c1cnn(C)c1O[C@H](C)CN(C)C2 .
Completion: 9.60

Prompt: Now try Cc1nn(C)c2c1-c1cc3c(n[nH]c3cn1)/C=C/c1c(OCC#N)nn(CCO)c1CN1CCC[C@@H]1CO2 .
Completion: 9.80

Prompt: Now try CCN1Cc2c(c(OCC#N)nn2[C@@H](C)CO)/C=C/c2n[nH]c3cnc(cc23)-c2c(C)nn(C)c2O[C@H](C)C1 .
Completion: 9.00

Prompt: Now try CCN1Cc2c(c(OCC#N)nn2[C@@H](C)CO)/C=C/c2n[nH]c3cnc(cc23)-c2c(C)nn(C)c2O[C@@H](C)C1 .
Completion: 8.97

Prompt: Now try Cc1nn(C)c2c1-c1cc3c(n[nH]c3cn1)/C=C/c1c(OCC#N)nn([C@@H](C)CO)c1CN1CCC[C@@H]1CO2 .
Completion: 9.09

Prompt: Now try CCOc1nn(CCO)c2c1/C=C/c1n[nH]c3cnc(cc13)-c1cnn(C)c1O[C@@H](C)CN(C1CC1)C2 .
Completion: 9.72

Prompt: Now try Cc1nn(C)c2c1-c1cc3c(n[nH]c3cn1)/C=C/c1c(OCC#N)nn(CCO)c1CN(C)[C@H](C)CO2 .
Completion: 9.68

Prompt: Now try CCOc1nn(CCO)c2c1/C=C/c1n[nH]c3cnc(cc13)-c1cnn(C)c1O[C@@H](C)CN(CC)C2 .
Completion: 9.55
